Test: Cytotoxic assay, primary human PBM cells
Type: cell-based
Settings: human, primary human PBM cells
We begin with a simple list: items and their reported IC50 at 5 day.
Provide only the numeric value, understood in µM.

| record.smiles | assay.metric | units.symbol | numeric.value |
| --- | --- | --- | --- |
| O=C(CN1c2c(-c3ccccc3)n[nH]c2-c2ccccc2S1(=O)=O)NN=Cc1cccs1 | IC50 at 5 day | µM | 30.6 |
| CC(=NNC(=O)CN1c2c(-c3ccccc3)n[nH]c2-c2ccccc2S1(=O)=O)c1cc2ccccc2oc1=O | IC50 at 5 day | µM | 82.7 |
| CC(=NNC(=O)CN1c2c(-c3ccccc3)n[nH]c2-c2ccccc2S1(=O)=O)c1cc(Cl)sc1Cl | IC50 at 5 day | µM | 12.2 |
| CC(=NNC(=O)CN1c2c(-c3ccccc3)n[nH]c2-c2ccccc2S1(=O)=O)c1sccc1Br | IC50 at 5 day | µM | 42.8 |
| CC(=NNC(=O)CN1c2c(-c3ccccc3)n[nH]c2-c2ccccc2S1(=O)=O)c1cccs1 | IC50 at 5 day | µM | 88 |

GET /values?readout=IC50 at 5 day&item= `CC(=NNC(=O)CN1c2c(-c3ccccc3)n[nH]c2-c2ccccc2S1(=O)=O)c1ccc(C)o1`
53.8

GET /values?readout=IC50 at 5 day&item= `CC(=NNC(=O)CN1c2c(-c3ccccc3)n[nH]c2-c2ccccc2S1(=O)=O)c1ccncc1`
75.6

Every entry's value here was drawn from paper PMC7732025.
